This listing pairs molecules with measured luminescence change, positive = activation.
experimentalSystem: Luciferin 4-monooxygenase (Photinus pyralis) (UniProt P08659)
Sequence (P08659 whole entry, looked up): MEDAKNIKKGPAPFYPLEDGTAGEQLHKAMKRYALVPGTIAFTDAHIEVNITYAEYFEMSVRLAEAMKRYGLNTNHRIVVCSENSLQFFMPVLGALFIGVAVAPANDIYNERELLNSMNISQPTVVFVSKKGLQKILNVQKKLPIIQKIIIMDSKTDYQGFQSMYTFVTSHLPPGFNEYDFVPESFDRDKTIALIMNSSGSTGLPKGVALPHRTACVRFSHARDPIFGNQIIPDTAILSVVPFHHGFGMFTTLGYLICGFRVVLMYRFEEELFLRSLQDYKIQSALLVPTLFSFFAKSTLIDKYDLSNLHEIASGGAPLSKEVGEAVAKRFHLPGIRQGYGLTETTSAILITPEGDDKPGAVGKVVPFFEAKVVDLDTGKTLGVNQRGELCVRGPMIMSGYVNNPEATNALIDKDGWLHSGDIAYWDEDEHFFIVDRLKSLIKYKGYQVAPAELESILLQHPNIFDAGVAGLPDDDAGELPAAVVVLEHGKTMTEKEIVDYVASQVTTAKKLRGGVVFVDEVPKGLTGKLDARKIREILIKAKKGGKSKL
methodNotes: compounds altering purified luciferase luminescence – biochemical, CellTiter-Glo luminescence, dry powder samples, counter-screen for NLG project, dose response (AID 720562)
condition: 1 h, at 30 µM (top of the series)
Provide only the numeric value, understood in %.

{"molecule": "Cc1cc(=O)[nH]c(N/N=C/c2cc(C)n(CC(F)(F)F)c2C)n1", "endpointValue": 36}
{"molecule": "CC(=O)c1cccc(NC(=O)CSc2ncc(C(=O)Nc3ccccc3)c(=O)n2C)c1", "endpointValue": -7.43}
{"molecule": "Cc1ccc(CCC(=O)Nc2ncc(Cc3cc(Cl)ccc3Cl)s2)o1", "endpointValue": -24.3}
{"molecule": "CC(=O)c1ccc(Oc2cc(C)nc(-n3nc(C)cc3C)n2)cc1", "endpointValue": -10.8}

Proceed to the following item.
// Cc1ccc(C(=O)c2cc([N+](=O)[O-])ccc2N2CCOCC2)cc1C : luminescence change, positive = activation value = 19.8

###

experimentalSystem: Luciferin 4-monooxygenase (Photinus pyralis) (UniProt P08659)
methodNotes: compounds altering purified luciferase luminescence – biochemical, CellTiter-Glo luminescence, dry powder samples, counter-screen for NLG project, dose response (AID 720562)
condition: 1 h
Activity calls are given as the source filed them.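 How the source made its calls: active means fitted curve rises past 40% activation at or below the highest valid tested dose; inconclusive means flat fit between 30% and 70%, or poor curve fit; inactive means the rest, including signal falling instead of rising.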
Use one of these outcomes when replying: active, inactive

Known results for molecules:
{"molecule": "O=C(Cc1ccccc1)c1nnc(-c2ccccc2)o1", "classAssignment": "inactive"}
{"molecule": "CC(=O)N[C@H]1[C@@H](O[C@@H]2OC(C[C@@H](O)C3O[C@@H](n4ccc(=O)[nH]c4=O)[C@H](O)[C@@H]3O)[C@H](O)[C@H](O)[C@H]2NC(=O)/C=C/CCCCCCCCCCC(C)C)O[C@H](CO)[C@@H](O)[C@@H]1O (some centres not stated)", "classAssignment": "active"}
{"molecule": "O=C1CCNc2cc3ccccc3cc21", "classAssignment": "active"}
{"molecule": "COc1cc(-c2nnc(SCC3(c4ccc(Br)cc4)OCCO3)o2)cc(OC)c1OC", "classAssignment": "inactive"}
{"molecule": "COC(=O)c1cn(C(=O)c2ccc(OC)cc2)c2ccccc12", "classAssignment": "active"}
{"molecule": "CCN(CC)CCOc1ccc2c(c1)C(=NNC(=O)c1ccccn1)c1cc(OCCN(CC)CC)ccc1-2", "classAssignment": "inactive"}

Outcome logged for COc1cc(C(=O)NCCOc2cc(C)cc(C)c2)cc(OC)c1OC in this assay:
active

Outcome logged for CCCOC(=O)c1[nH]c2c(c1C)C(=O)CC(c1cccs1)C2 (configuration not stated) in this assay:
active

###

experimentalSystem: Luciferin 4-monooxygenase (Photinus pyralis) (UniProt P08659)
methodNotes: compounds altering purified luciferase luminescence – biochemical, CellTiter-Glo luminescence, dry powder samples, counter-screen for NLG project, dose response (AID 720562)
condition: 1 h, at 30 µM (top of the series)
outcomeMeasure: luminescence change, positive = activation (%)
Provide only the numeric value, understood in %.

Consider the reported luminescence change, positive = activation for these molecules:
{"molecule": "C/C(=N\\NC(=O)c1c([N+](=O)[O-])c(C)nn1C)c1ccc(NC(=O)C2CCCC2)cc1", "uom": "%", "endpointValue": -2.7}
{"molecule": "Cc1[nH][nH]c(=O)c1C(c1ccc(-c2ccc(Cl)c(Cl)c2)o1)c1c(C)[nH][nH]c1=O", "uom": "%", "endpointValue": 7.43}

Record COc1ccccc1-c1nnc(SCc2ccccc2)o1 ; system Luciferin 4-monooxygenase (Photinus pyralis) (UniProt P08659); luminescence change, positive = activation = -10.8

Record CCCCOc1ccccc1C1CC(=O)NC2=C1C(=O)CCC2 (configuration not stated) ; system Luciferin 4-monooxygenase (Photinus pyralis) (UniProt P08659); luminescence change, positive = activation = -27

Record Cc1ccc(Oc2ccc(S(=O)(=O)N3CCOCC3)cc2C(N)=O)c(-n2nc3ccccc3n2)c1 ; system Luciferin 4-monooxygenase (Photinus pyralis) (UniProt P08659); luminescence change, positive = activation = -22.3

Record COc1cccc(N2CCN(C(=O)c3ccc(CS(=O)c4ccc(C)cc4)o3)CC2)c1 (configuration not stated) ; system Luciferin 4-monooxygenase (Photinus pyralis) (UniProt P08659); luminescence change, positive = activation = 8.11

Record Cc1cc(NC(=O)CSc2nc(-c3ccco3)cc(C(F)(F)F)n2)no1 ; system Luciferin 4-monooxygenase (Photinus pyralis) (UniProt P08659); luminescence change, positive = activation = -25.7

Record CCN(CC)CCCNc1nc2cc(OC)c(OC)cc2c2nc(-c3ccccc3)nn12 ; system Luciferin 4-monooxygenase (Photinus pyralis) (UniProt P08659); luminescence change, positive = activation = -10.1

Record COc1ccccc1CSc1nnc(-c2ccccc2)o1 ; system Luciferin 4-monooxygenase (Photinus pyralis) (UniProt P08659); luminescence change, positive = activation = 19.8

Record COc1cc(Nc2c3c(nc4ccccc24)CCCC3)cc(OC)c1OC ; system Luciferin 4-monooxygenase (Photinus pyralis) (UniProt P08659); luminescence change, positive = activation = -14.9

###

experimentalSystem: Luciferin 4-monooxygenase (Photinus pyralis) (UniProt P08659)
methodNotes: compounds altering purified luciferase luminescence – biochemical, CellTiter-Glo luminescence, dry powder samples, counter-screen for NLG project, dose response (AID 720562)
condition: 1 h
Calls of active or inactive are those of the source.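 How the source made its calls: active means fitted curve rises past 40% activation at or below the highest valid tested dose; inconclusive means flat fit between 30% and 70%, or poor curve fit; inactive means the rest, including signal falling instead of rising.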
Use one of these outcomes when replying: active, inactive

{"compound": "COc1ccc(-c2nnc(SCc3ccccc3)o2)cc1", "experimentalSystem": "Luciferin 4-monooxygenase (Photinus pyralis) (UniProt P08659)", "classAssignment": "inactive"}

Outcome logged for COc1ccc2c(COC(=O)c3cccc(S(=O)(=O)NCC(C)C)c3)cc(=O)oc2c1 in this assay:
active

Outcome logged for Cc1ccc(/C=N/NC(=O)C2COc3ccccc3O2)s1 (centres undefined) in this assay:
inactive

Outcome logged for CCN(CC)CCC(=O)Nc1cccc2c1C(=O)c1ccccc1C2=O in this assay:
active

###

experimentalSystem: UniProtKB P08659
methodNotes: compounds altering purified luciferase luminescence – biochemical, CellTiter-Glo luminescence, dry powder samples, counter-screen for NLG project, dose response (AID 720562)
condition: 1 h, at 30 µM (top of the series)
This listing pairs compounds with measured luminescence change, positive = activation.
Provide only the numeric value, understood in %.

{"compoundSmiles": "COc1ccc(NC(=O)C(=O)c2cn(CC(=O)N3CCCC3)c3ccccc23)cc1", "experimentalSystem": "UniProtKB P08659", "endpointValue": -20.3}
{"compoundSmiles": "COc1ccccc1OCC(=O)NNC(=O)c1ccoc1C", "experimentalSystem": "UniProtKB P08659", "endpointValue": -17.6}
{"compoundSmiles": "CCC1=Nc2cc(C(=O)NCCCOC)ccc2Sc2ccccc21", "experimentalSystem": "UniProtKB P08659", "endpointValue": -11.5}
{"compoundSmiles": "Cc1cccc(C)c1OCCNC(=O)C(=O)NCc1ccco1", "experimentalSystem": "UniProtKB P08659", "endpointValue": -39.9}
{"compoundSmiles": "Cc1cnc(NC(=O)c2cc(S(=O)(=O)N(C)C)ccc2N2CCCC2)s1", "experimentalSystem": "UniProtKB P08659", "endpointValue": 8.11}

// Nc1nc(=S)c2ncn([C@@H]3O[C@H](CO)[C@@H](O)[C@H]3O)c2[nH]1 : luminescence change, positive = activation value = 97.3

// Brc1ccc(CSc2nnc(-c3ccccc3)o2)cc1 : luminescence change, positive = activation value = 21.6

// CCOC(=O)c1ccc(Oc2cc(C)nc(SC)n2)cc1 : luminescence change, positive = activation value = 16.2

// Cc1cc(C)nc(/N=C(\N)Nc2ccc(OCc3ccccc3)cc2)n1 : luminescence change, positive = activation value = 36.9

// CCOC(=O)COc1cccc2c(=O)n(CC(=O)NCc3ccccc3)ccc12 : luminescence change, positive = activation value = -4.73

// Cc1cc(C)cc(C(=O)N2CC(=O)Nc3ccccc32)c1 : luminescence change, positive = activation value = -9.46

// CCOc1ccc(NC(=O)c2cc(OC)nc3ccccc23)cc1 : luminescence change, positive = activation value = -0.676

###

experimentalSystem: Luciferin 4-monooxygenase (Photinus pyralis) (UniProt P08659)
methodNotes: compounds altering purified luciferase luminescence – biochemical, CellTiter-Glo luminescence, dry powder samples, counter-screen for NLG project, dose response (AID 720562)
condition: 1 h
Calls of active or inactive are those of the source.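 The calls were made as follows: active = fitted curve rises past 40% activation at or below the highest valid tested dose; inconclusive = flat fit between 30% and 70%, or poor curve fit; inactive = the rest, including signal falling instead of rising.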
This listing pairs compounds with measured AC40.

{"compoundSmiles": "CC(=O)N1CCC(=O)c2cc3ccccc3cc21", "AC40": "4.65 µM"}

// COc1ccc(CSc2nnc(-c3ccccc3)o2)cc1 : AC40 value = > 30 µM (inactive)

// c1ccc(CSc2nnc(-c3ccccc3)o2)cc1 : AC40 value = 20.9 µM

// CCCNS(=O)(=O)c1cccc(C(=O)OCc2cc(=O)oc3cc(OC)ccc23)c1 : AC40 value = 6.81 µM

// O=C(N/N=C/c1ccc(Cl)cc1)c1sccc1OCc1ccc(F)cc1 : AC40 value = > 30 µM (inactive)
